Kd by entry:
Molecular target: CNOT7 (Homo sapiens, UniProt Q9UIV1)
Construct: biotin (biotinylated); purchased Ichor Life Sciences
Sequence (Q9UIV1 whole entry): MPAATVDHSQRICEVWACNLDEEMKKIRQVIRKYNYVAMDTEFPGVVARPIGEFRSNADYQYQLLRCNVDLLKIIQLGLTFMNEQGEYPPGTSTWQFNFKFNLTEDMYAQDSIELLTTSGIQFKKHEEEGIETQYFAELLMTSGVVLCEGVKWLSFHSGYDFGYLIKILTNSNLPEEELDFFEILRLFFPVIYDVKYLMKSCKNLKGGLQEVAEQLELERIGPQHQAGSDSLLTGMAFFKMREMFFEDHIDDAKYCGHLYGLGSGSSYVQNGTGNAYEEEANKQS
Assay: Binding of compounds to CNOT7 by surface plasmon resonance (SPR)
Settings: Table 5; dissociation constant for CNOT7 by SPR

| Molecule | Subject Of Test | Experimental Result |
| --- | --- | --- |
| COc1ccc(C(C)(C)NC(=O)CSc2nc(=O)[nH]cc2C)cc1 | CNOT7 (Homo sapiens, UniProt Q9UIV1) | 1 to 25 µM |
| COc1ccc(C(C)NC(=O)CSc2nc(=O)[nH]cc2C)cc1 (centres unmarked) | CNOT7 (Homo sapiens, UniProt Q9UIV1) | 1 to 25 µM |
| COc1ccc2c(c1)CN(C(=O)CSc1nc(=O)[nH]cc1C)C2 | CNOT7 (Homo sapiens, UniProt Q9UIV1) | > 25 µM |
| COc1ccc(CNC(=O)CSc2nc(=O)[nH]cc2C)nc1 | CNOT7 (Homo sapiens, UniProt Q9UIV1) | 1 to 25 µM |

Next:
IN: Quick check: Kd of `COc1cnc(CNC(=O)CSc2nc(=O)[nH]cc2C)nc1` ?
OUT: 1 to 25 µM

====

Biological target: CNOT7 (Homo sapiens)
Construct: biotin (biotinylated); purchased Ichor Life Sciences
Assay: Binding of compounds to CNOT7 by surface plasmon resonance (SPR)
Settings: Table 5; dissociation constant for CNOT7 by SPR
Kd by entry:

// below: answered compounds
| Compound | Kd |
| --- | --- |
| Cc1c[nH]c(=O)nc1SCC(=O)NCc1ccc2c(c1)N(C)CCO2 | > 25 µM |
| COc1ccc(C2(NC(=O)CSc3nc(=O)[nH]cc3C)CC2)cc1 | 1 to 25 µM |
| COc1ccc(C(C)NC(=O)CSc2nc(=O)[nH]cc2C2CC2)cc1 (stereo not drawn) | > 25 µM |
| COc1ccc(C(C)NC(=O)C2CC2c2nc(=O)[nH]cc2C)cc1 (mixture of isomers) [Compound I-239] | > 25 µM |
| COCCOCCC(Sc1nc(=O)[nH]cc1C)C(=O)NCc1ccc(OC)cc1 (stereo not drawn) | 1 to 25 µM |
| COc1ccc(CN2CCC(Sc3nc(=O)[nH]cc3C)C2=O)cc1 (stereo not drawn) | > 25 µM |
| COCCOCC[C@@H](Sc1nc(=O)[nH]cc1C)C(=O)NCc1ccc(OC)cc1 | 1 to 25 µM |
| COCC(Sc1nc(=O)[nH]cc1C)C(=O)NC(C)c1ccc(OC)cc1 (stereo not drawn) [Compound I-267] | 1 to 25 µM |
| CCc1c[nH]c(=O)nc1SCC(=O)N[C@H](C)c1ccc(OC)cc1 | 1 to 25 µM |
| COc1ccc(CNC(=O)C(C)Sc2nc(=O)[nH]cc2C)cc1 (stereo not drawn) | 1 to 25 µM |

IN: Quick check: Kd of `CC[C@@H](NC(=O)CSc1nc(=O)[nH]cc1C)c1ccc(OC)cc1` ?
OUT: 1 to 25 µM

IN: Quick check: Kd of `COCCOCC[C@H](Sc1nc(=O)[nH]cc1C)C(=O)NCc1ccc(OC)cc1` ?
OUT: 1 to 25 µM

IN: Quick check: Kd of `COc1ccc([C@H](C)NC(=O)CSc2nc(=O)[nH]cc2C)cc1` ?
OUT: > 25 µM

IN: Quick check: Kd of `COc1ccc2c(c1)CCN(C(=O)CSc1nc(=O)[nH]cc1C)C2` ?
OUT: 1 to 25 µM

====

Kd by entry:
Biological target: CNOT7 (Homo sapiens, UniProt Q9UIV1)
Construct: biotin (biotinylated); purchased Ichor Life Sciences
Experiment: Binding of compounds to CNOT7 by surface plasmon resonance (SPR)
Details: Table 6; dissociation constant for CNOT7 by SPR

// below: answered compounds
| Compound | Kd |
| --- | --- |
| C#CCOCCOCCOCC(Sc1nc(=O)[nH]cc1C)C(=O)NC(C)c1ccc(OC)cc1F (centres unmarked) [Compound I-326] | 1 to 25 µM |
| COc1cnc(CNC(=O)CSc2nc(=O)[nH]cc2C)cn1 [Compound I-45] | 1 to 25 µM |
| COc1ccc(C(C)NC(=O)CSc2nc(=O)[nH]cc2C)cc1F (centres unmarked) [Compound I-244] | 1 to 25 µM |
| Cc1c[nH]c(=O)nc1SCC(=O)NC(C)c1ccc2c(c1)CC(=O)N2 (centres unmarked) [Compound I-322] | 1 to 25 µM |

Next:
IN: Quick check: Kd of COc1ccc([C@@H](C)NC(=O)C2(Sc3nc(=O)[nH]cc3C)CCC2)cc1 [Compound I-324] ?
OUT: 1 to 25 µM

====

Kd by entry:
Target: CNOT7 (Homo sapiens, UniProt Q9UIV1)
Construct: biotin (biotinylated); purchased Ichor Life Sciences
Assay: Binding of compounds to CNOT7 by surface plasmon resonance (SPR)
Conditions: Table 6; dissociation constant for CNOT7 by SPR

// below: answered compounds
| Smiles Record | Measured Attribute | Experimental Result |
| --- | --- | --- |
| Cc1c[nH]c(=O)nc1SCC(=O)N[C@H](C)c1ccc2c(c1)CC(=O)N2 | Kd | 1 to 25 µM |
| COc1ccc([C@@H](C)NC(=O)[C@@H](CCOCCOCCOCCN=[N+]=[N-])Sc2cc[nH]c(=O)n2)cc1 | Kd | 1 to 25 µM |
| COCCOC[C@@H](Sc1nc(=O)[nH]cc1C)C(=O)N[C@H](C)c1ccc(OC)cc1 | Kd | 1 to 25 µM |

Next:
IN: Quick check: Kd of `COc1ccc([C@@H](C)NC(=O)CSc2nc(=O)[nH]cc2C)c(C)c1` ?
OUT: 0.1 to 1 µM

====

Target: CNOT7-FKBP12(F36V) fusion protein (Homo sapiens, UniProt Q9UIV1)
Construct: expressed in transfected cells; host or cells: H1299 cells; anti-HA immunoprecipitation, HA-peptide elution
Sequence (Q9UIV1 with tags, fused parts or gaps): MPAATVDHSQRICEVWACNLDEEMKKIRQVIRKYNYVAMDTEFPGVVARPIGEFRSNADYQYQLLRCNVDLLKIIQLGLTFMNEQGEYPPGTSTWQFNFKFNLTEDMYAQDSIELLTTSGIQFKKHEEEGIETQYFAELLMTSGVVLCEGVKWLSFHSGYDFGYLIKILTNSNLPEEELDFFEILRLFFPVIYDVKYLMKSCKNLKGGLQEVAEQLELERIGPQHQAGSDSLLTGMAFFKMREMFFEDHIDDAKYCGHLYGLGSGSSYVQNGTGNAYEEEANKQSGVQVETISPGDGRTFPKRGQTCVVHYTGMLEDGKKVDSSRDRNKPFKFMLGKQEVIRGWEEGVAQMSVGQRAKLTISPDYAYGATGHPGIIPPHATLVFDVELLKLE
Test: Biochemical gel assay: degradation/deadenylation of RNA substrate with immunoprecipitated CNOT7-FKBP12(F36V)
Parameters: key: +: an activity observed as compared to DMSO control; −: no activity observed as compared to DMSO control
Conditions: Table 8; degradation of RNA, compared to DMSO control
Measured Attribute: Activity by gel

// below: answered compounds
| Compound | Activity by gel |
| --- | --- |
| COc1ccc2c(c1)C[C@H](COCCOCCOCCOCc1cn(CCOc3ccc(NC(=O)Nc4nc(CC(=O)N5CCN(C)CC5)cs4)cc3)nn1)N(C(=O)CSc1nc(=O)[nH]cc1C)C2 [Compound I-339] | + |
| COc1ccc2c(c1)C[C@@H](COCCOCCOCCOCc1cn(CCOc3ccc(NC(=O)Nc4nc(CC(=O)N5CCN(C)CC5)cs4)cc3)nn1)N(C(=O)CSc1nc(=O)[nH]cc1C)C2 [Compound I-338] | − |
| COc1ccc([C@@H](C)NC(=O)[C@@H](COCCOCCOCc2cn(CCOc3ccc(NC(=O)Nc4nc(CC(=O)N5CCN(C)CC5)cs4)cc3)nn2)Sc2nc(=O)[nH]cc2Cl)c(F)c1 [Compound I-372] | + |
| COc1ccc([C@@H](C)NC(=O)[C@@H](CCC(=O)N(C)Cc2cn(CCOc3ccc(NC(=O)Nc4nc(CC(=O)N5CCN(C)CC5)cs4)cc3)nn2)Sc2nc(=O)[nH]cc2C)c(F)c1 [Compound I-506] | − |

Next:
IN: Enter reported Activity by gel observed with CNOT7-FKBP12(F36V) fusion protein (Homo sapiens, UniProt Q9UIV1) for COc1ccc2c(c1)CC(COCCOCCOCCOCc1cn(CCOc3ccc(NC(=O)Nc4nc(CC(=O)N5CCN(C)CC5)cs4)cc3)nn1)N(C(=O)CSc1nc(=O)[nH]cc1C)C2 (centres unmarked) [Compound I-451]
OUT: −

====

Biological target: CNOT7 (Homo sapiens)
Construct: biotin (biotinylated); purchased Ichor Life Sciences
Test: Binding of compounds to CNOT7 by surface plasmon resonance (SPR)
Details: Table 4; dissociation constant for CNOT7
Measured Attribute: Kd

IN: Quick check: Kd of `Cc1c[nH]c(=O)nc1SCC(=O)NCc1ccc2c(c1)OCO2` ?
OUT: 1 to 25 µM

IN: Quick check: Kd of `COc1ccc(CNC(=O)CSc2nc(=O)[nH]cc2C)cc1` ?
OUT: 1 to 25 µM

IN: Quick check: Kd of `O=C(CSc1cc[nH]c(=O)n1)NCc1ccc2c(c1)OCO2` ?
OUT: > 25 µM

IN: Quick check: Kd of `Cc1c[nH]c(=O)nc1SCC(=O)NCc1ccccc1` ?
OUT: > 25 µM

IN: Quick check: Kd of `Cc1c[nH]c(=O)nc1SCC(=O)N(C)Cc1ccc2c(c1)OCO2` ?
OUT: > 25 µM

IN: Quick check: Kd of `COc1cccc(CNC(=O)CSc2nc(=O)[nH]cc2C)c1` ?
OUT: > 25 µM
